tested on: Cryptococcus neoformans; experiment: Growth inhibition of Cryptococcus neoformans H99 ATCC 208821 at 32 ug/ml after 24 hrs by resazurin dye-based microspectrophotometric assay; assay type: functional; conditions: var. grubii H99 ATCC 208821, 24 h, read-out: GI
Measured inhibition of growth at 32 µg/mL accompanies every entry in the list below.
Give the value, in units of %, as a plain number.

Consider the worked cases shown below.
{"columns": ["Chemical Smiles", "Unit Info", "inhibition of growth at 32 µg/mL"],
 "data": [
  ["CN1CCCN1C(=O)[C@@H]1CCCN1C(=O)N1CCCN1C(=O)[C@@H]1CCCN1C(=O)N1CCCN1C(=O)[C@@H]1CCCN1C(=O)N1CCCN1C(=O)[C@@H]1CCCN1C(=O)N1CCCN1C(=O)[C@@H]1CCCN1C(=O)N1CCCN1C(=O)[C@@H]1CCCN1C(=O)N1CCCN1C(=O)[C@@H]1CCCN1C(=O)N1CCCN1C(=O)[C@@H]1CCCN1C(=O)N1CCCN1C(=O)OCc1ccccc1", "%", -5.68],
  ["Cl.O=C(OCc1ccccc1)N1CCCN1C(=O)[C@@H]1CCCN1C(=O)N1CCCN1C(=O)[C@@H]1CCCN1C(=O)N1CCCN1C(=O)[C@@H]1CCCN1C(=O)N1CCCN1C(=O)[C@@H]1CCCN1", "%", -1.33],
  ["O=CN1CCCN1C(=O)N1CCC[C@H]1C(=O)N1CCCN1C(=O)N1CCC[C@H]1C(=O)N1CCCN1C(=O)N1CCC[C@H]1C(=O)N1CCCN1C(=O)N1CCC[C@H]1C(=O)N1CCCN1C(=O)N1CCC[C@H]1C(=O)N1CCCN1C(=O)N1CCC[C@H]1C(=O)NCCO", "%", -11.1]
]}

Next item in the queue.
Lab note: measured inhibition of growth at 32 µg/mL of O=C(O)[C@@H]1CCCN1C(=O)N1CCCN1C(=O)[C@@H]1CCCN1C(=O)N1CCCN1C(=O)[C@@H]1CCCN1C(=O)N1CCCN1C(=O)[C@@H]1CCCN1C(=O)N1CCCN1C(=O)OCc1ccccc1 was -5.78

====

tested on: Cryptococcus neoformans; test: Growth inhibition of Cryptococcus neoformans H99 ATCC 208821 at 32 ug/ml after 24 hrs by resazurin dye-based microspectrophotometric assay; type: functional; conditions: var. grubii H99 ATCC 208821, 24 h, read-out: GI
Measured Metric: inhibition of growth at 32 µg/mL

Consider the worked cases shown below.
{"columns": ["Chemical Smiles", "inhibition of growth at 32 µg/mL"],
 "data": [
  ["CC(C)(C)OC(=O)N1CCC[C@H]1C(=O)N1CCCN1C(=O)N1CCC[C@H]1C(=O)N1CCCN1C(=O)N1CCC[C@H]1C(=O)N1CCCN1C(=O)N1CCC[C@H]1C(=O)N1CCCN1C(=O)N1CCC[C@H]1C(=O)N1CCCN1C(=O)N1CCC[C@H]1C(=O)N1CCCN1C(=O)N1CCC[C@H]1C(=O)N1CCCN1C(=O)N1CCC[C@H]1C(=O)N1CCCN1C(=O)OCc1ccccc1", "-3.43%"],
  ["O=C(O)[C@@H]1CCCN1C(=O)N1CCCN1C(=O)[C@@H]1CCCN1C(=O)N1CCCN1C(=O)[C@@H]1CCCN1C(=O)N1CCCN1C(=O)[C@@H]1CCCN1C(=O)N1CCCN1C(=O)[C@@H]1CCCN1C(=O)N1CCCN1C(=O)[C@@H]1CCCN1C(=O)N1CCCN1C(=O)[C@@H]1CCCN1C(=O)N1CCCN1C(=O)[C@@H]1CCCN1C(=O)N1CCCN1C(=O)OCc1ccccc1", "-1.86%"],
  ["O=C([C@@H]1CCCN1C(=O)N1CCCN1C(=O)[C@@H]1CCCN1C(=O)N1CCCN1C(=O)[C@@H]1CCCN1C(=O)N1CCCN1C(=O)[C@@H]1CCCN1C(=O)N1CCCN1C(=O)[C@@H]1CCCN1C(=O)N1CCCN1C(=O)[C@@H]1CCCN1C(=O)N1CCCN1C(=O)[C@@H]1CCCN1C(=O)N1CCCN1C(=O)[C@@H]1CCCN1)N1CCCN1", "-2.7%"],
  ["CC(C)(C)OC(=O)[C@@H]1CCCN1C(=O)N1CCCN1C(=O)[C@@H]1CCCN1C(=O)N1CCCN1C(=O)[C@@H]1CCCN1C(=O)N1CCCN1C(=O)[C@@H]1CCCN1C(=O)N1CCCN1C(=O)[C@@H]1CCCN1C(=O)N1CCCN1C(=O)[C@@H]1CCCN1C(=O)N1CCCN1C(=O)[C@@H]1CCCN1C(=O)N1CCCN1C(=O)[C@@H]1CCCN1C(=O)N1CCCN1C(=O)OCc1ccccc1", "-8.19%"],
  ["O=C(NCCO)[C@@H]1CCCN1C(=O)N1CCCN1C(=O)[C@@H]1CCCN1C(=O)N1CCCN1C(=O)[C@@H]1CCCN1C(=O)N1CCCN1C(=O)[C@@H]1CCCN1C(=O)N1CCCN1C(=O)[C@@H]1CCCN1C(=O)N1CCCN1C(=O)[C@@H]1CCCN1C(=O)N1CCCN1C(=O)[C@@H]1CCCN1C(=O)N1CCCN1C(=O)[C@@H]1CCCN1C(=O)N1CCCN1C(=O)OCc1ccccc1", "-4.06%"],
  ["O=CN1CCCN1C(=O)N1CCC[C@H]1C(=O)N1CCCN1C(=O)N1CCC[C@H]1C(=O)N1CCCN1C(=O)N1CCC[C@H]1C(=O)N1CCCN1C(=O)N1CCC[C@H]1C(=O)N1CCCN1C(=O)N1CCC[C@H]1C(=O)N1CCCN1C(=O)N1CCC[C@H]1C(=O)N1CCCN1C(=O)N1CCC[C@H]1C(=O)N1CCCN1C(=O)N1CCC[C@H]1C(=O)NCCO", "-8.24%"]
]}

Next item in the queue.
Field inhibition of growth at 32 µg/mL (system: Cryptococcus neoformans) for entry CC(C)(C)OC(=O)N1CCC[C@H]1C(=O)N1CCCN1C(=O)N1CCC[C@H]1C(=O)N1CCCN1C(=O)N1CCC[C@H]1C(=O)N1CCCN1C(=O)N1CCC[C@H]1C(=O)N1CCCN1 = -0.655%

====

test: Hemolytic activity against human RBC at 0.78 uM after 1 hr by Drabkin's assay relative to control; format: ADME, cell-based, Erythrocyte; conditions: human red blood cells (erythrocytes), read-out: Activity
Measured Metric: hemolysis at 1 h, 0.78 µM (%)
Give the value, in units of %, as a plain number.

Consider the worked cases shown below.
{"columns": ["Chemical Smiles", "hemolysis at 1 h, 0.78 µM / %"],
 "data": [
  ["CC(C)(C)OC(=O)N1CCC[C@H]1C(=O)N1CCCN1C(=O)N1CCC[C@H]1C(=O)N1CCCN1C(=O)N1CCC[C@H]1C(=O)N1CCCN1C(=O)N1CCC[C@H]1C(=O)N1CCCN1C(=O)N1CCC[C@H]1C(=O)N1CCCN1C(=O)N1CCC[C@H]1C(=O)N1CCCN1C(=O)N1CCC[C@H]1C(=O)N1CCCN1C(=O)N1CCC[C@H]1C(=O)N1CCCN1C(=O)OCc1ccccc1", 0.15],
  ["CC(=O)N1CCCN1C(=O)N1CCC[C@H]1C(=O)N1CCCN1C(=O)N1CCC[C@H]1C(=O)N1CCCN1C(=O)N1CCC[C@H]1C(=O)N1CCCN1C(=O)N1CCC[C@H]1C(=O)N1CCCN1C(=O)N1CCC[C@H]1C(=O)N1CCCN1C(=O)N1CCC[C@H]1C(=O)N1CCCN1C(=O)N1CCC[C@H]1C(=O)N1CCCN1C(=O)N1CCC[C@H]1C(=O)NCCO", -0.16]
]}

Next item in the queue.
Lab note: measured hemolysis at 1 h, 0.78 µM of CC(C)(C)OC(=O)[C@@H]1CCCN1C(=O)N1CCCN1C(=O)[C@@H]1CCCN1C(=O)N1CCCN1C(=O)[C@@H]1CCCN1C(=O)N1CCCN1C(=O)[C@@H]1CCCN1C(=O)N1CCCN1C(=O)[C@@H]1CCCN1C(=O)N1CCCN1C(=O)[C@@H]1CCCN1C(=O)N1CCCN1C(=O)[C@@H]1CCCN1C(=O)N1CCCN1C(=O)[C@@H]1CCCN1C(=O)N1CCCN1C(=O)OCc1ccccc1 was 0.04

====

test system: Lipid bilayer; assay: Binding affinity to POPC vesicles by surface plasmon resonance spectroscopy
Measured Metric: Rmax
// no unit string in output, number only

Consider the worked cases shown below.
{"columns": ["Chemical Smiles", "Reported Result"],
 "data": [
  ["CC(=O)N1CCCN1C(=O)N1CCC[C@H]1C(=O)N1CCCN1C(=O)N1CCC[C@H]1C(=O)N1CCCN1C(=O)N1CCC[C@H]1C(=O)N1CCCN1C(=O)N1CCC[C@H]1C(=O)N1CCCN1C(=O)N1CCC[C@H]1C(=O)N1CCCN1C(=O)N1CCC[C@H]1C(=O)N1CCCN1C(=O)N1CCC[C@H]1C(=O)N1CCCN1C(=O)N1CCC[C@H]1C(=O)NCCO", 460],
  ["CC(C)(C)OC(=O)N1CCC[C@H]1C(=O)N1CCCN1C(=O)N1CCC[C@H]1C(=O)N1CCCN1C(=O)N1CCC[C@H]1C(=O)N1CCCN1C(=O)N1CCC[C@H]1C(=O)N1CCCN1C(=O)N1CCC[C@H]1C(=O)N1CCCN1C(=O)N1CCC[C@H]1C(=O)N1CCCN1C(=O)N1CCC[C@H]1C(=O)N1CCCN1C(=O)N1CCC[C@H]1C(=O)N1CCCN1C(=O)OCc1ccccc1", 632],
  ["CC(C)(C)OC(=O)[C@@H]1CCCN1C(=O)N1CCCN1C(=O)[C@@H]1CCCN1C(=O)N1CCCN1C(=O)[C@@H]1CCCN1C(=O)N1CCCN1C(=O)[C@@H]1CCCN1C(=O)N1CCCN1C(=O)[C@@H]1CCCN1C(=O)N1CCCN1C(=O)[C@@H]1CCCN1C(=O)N1CCCN1C(=O)[C@@H]1CCCN1C(=O)N1CCCN1C(=O)[C@@H]1CCCN1C(=O)N1CCCN1C(=O)OCc1ccccc1", 2640]
]}

Lab note: measured Rmax of O=C(NCCO)[C@@H]1CCCN1C(=O)N1CCCN1C(=O)[C@@H]1CCCN1C(=O)N1CCCN1C(=O)[C@@H]1CCCN1C(=O)N1CCCN1C(=O)[C@@H]1CCCN1C(=O)N1CCCN1C(=O)[C@@H]1CCCN1C(=O)N1CCCN1C(=O)[C@@H]1CCCN1C(=O)N1CCCN1C(=O)[C@@H]1CCCN1C(=O)N1CCCN1C(=O)[C@@H]1CCCN1C(=O)N1CCCN1C(=O)OCc1ccccc1 was 601
